Tested on: T-cell
EXPERIMENTAL_DETAILS: IL-2 secretion from T-cells co-stimulated with anti-CD3 and anti-CD28 antibody (Biological Example 2)
Assay type: cell-based, human
TEST_PARAMETERS: Homo sapiens, T-cell, 0.3 μM compound; primary human total T-cells; baseline = anti-CD3/anti-CD28 stimulated cells without inhibitor; read-out: IL-2 secretion, Anti-CD3/Anti-CD28 stimulation, fold change over baseline
PROPERTY_LABEL: fold induction at 0.3 µM

Here's what some known entries look like.
COMPOUND: Cn1cnnc1CC1(c2cccc(N3Cc4c(cc(CO)cc4C(F)(F)F)C3=O)c2)COC1
MEASURED_ON: T-cell
fold induction at 0.3 µM: 2.51 to 5
//
COMPOUND: Cn1cnnc1C(F)(F)[C@](C)(F)c1cccc(N2Cc3c(cc(CN4CCC(F)(F)C4)cc3C(F)(F)F)C2=O)c1
MEASURED_ON: T-cell
fold induction at 0.3 µM: 1.01 to 2.5
//
COMPOUND: C[C@H](c1cc2c(c(C(F)(F)F)c1)CN(c1cccc(C3(Cc4nncn4C)COC3)c1)C2=O)N1CCC(C)(F)CC1 [Example 553b]
MEASURED_ON: T-cell
fold induction at 0.3 µM: > 7.5
//
COMPOUND: Cn1cnnc1-c1cnn(C)c1-c1cccc(N2Cc3c(cccc3C(F)(F)F)C2=O)c1
MEASURED_ON: T-cell
fold induction at 0.3 µM: 1.01 to 2.5
//
COMPOUND: Cn1cnnc1CC1(c2cccc(N3Cc4c(cc(CN5CC(C)(C#N)C5)cc4C(F)(F)F)C3=O)c2)COC1
MEASURED_ON: T-cell
fold induction at 0.3 µM: 2.51 to 5

Exam item: Find the measured fold induction at 0.3 µM of CN(c1cc2c(c(C(F)(F)F)c1)CN(c1cccc([C@@](C)(F)C(F)(F)c3nncn3C)c1)C2=O)[C@@H]1CNC[C@@H]1F with T-cell as test system.
Marked response: 1.01 to 2.5

Exam item: Find the measured fold induction at 0.3 µM of CN(C)Cc1cc(C(=O)Nc2cccc(C3(Cc4nncn4C)COC3)c2)nc(C2CC2)n1 with T-cell as test system.
Marked response: 2.51 to 5
